Test: Cellular Toxicity (caspase-3) N2a (AID 665);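 further: compound exposure lasted 16 h at 37 °C before readout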
Details: N2a cells, luminescence, normalized: DMSO 0%, 10 µM staurosporine 100%; series mostly up to 92.2 µM
Source text: NIH Chemical Genomics Center [NCGC] NIH Molecular Libraries Screening Centers Network [MLSCN] National Institutes of Environmental Health Sciences [NIEHS] National Toxicology Program [NTP] We have developed a 1536-well cell-based assay for quantitative high throughput screening (qHTS) against a number of cell lines to determine in vitro caspase 3/7 activity of small molecules. […] 8. Detection; Luminescence; Viewlux plate reader […]
Calls of active or inactive are those of the source. The call rests on the fitted dose curve; in most records, active means well fitted activation curve with a large enough effect; inconclusive means small, poorly fitted or top-dose-only effect; inactive means flat fitted curve, though single readings scatter.

cpdSmiles: Cc1cc(C)nc(NS(=O)(=O)c2ccc(N)cc2)n1
outcome: inactive
--
cpdSmiles: Cc1c(N(C)C)c(=O)n(-c2ccccc2)n1C
outcome: inactive
--
cpdSmiles: C=CCNC(N)=S
outcome: inactive
--
cpdSmiles: CCCCCC(N)=O
outcome: inactive
--
cpdSmiles: CCCCCCCC(=O)OCC(COC(=O)CCCCCCC)OC(=O)CCCCCCC
outcome: inactive
--
cpdSmiles: CC(=O)OCC(COC(C)=O)OC(C)=O
outcome: inactive
--
cpdSmiles: CCN(CC)C(=O)c1cccc(C)c1
outcome: inactive

The reported measurements were obtained from PubChem BioAssay (NCATS).
